- Test system: passive cutaneous anaphylaxis in rats
- assay-procedure: Protective effect against passive cutaneous anaphylaxis (PCA) in rats
- Format: in vivo
- protocol-conditions: Rattus norvegicus, ip, 100 mg/kg i.p., 30 min prior to ovalbumin injection, read-out: % Protection (with respect to the controls)
inhibition in vivo at 100 mg/kg for assorted compounds
Provide only the numeric value, understood in %.

Consider the worked cases shown below.
Cc1cc2nc(N)nc(N)n2n1
56
Cc1cc2nc(N)nc(NC(C)(C)C)n2n1
50
CNc1nc(N)nc2cc(C)nn12
92

Query :: Give passive cutaneous anaphylaxis in rats inhibition in vivo at 100 mg/kg for the following compound: Cc1cc2nc(N)nc(NCC3CCCO3)n2n1 (stereo not shown)
Result :: 54

Query :: Give passive cutaneous anaphylaxis in rats inhibition in vivo at 100 mg/kg for the following compound: Nc1nc(N)n2nccc2n1 [Example 1, 2,4-Diamino-pyrazolo[1,5-a]s.triazine]
Result :: 42

Query :: Give passive cutaneous anaphylaxis in rats inhibition in vivo at 100 mg/kg for the following compound: `CCc1nn2c(N)nc(N)nc2c1C`
Result :: 92

Query :: Give passive cutaneous anaphylaxis in rats inhibition in vivo at 100 mg/kg for the following compound: `C=CCNc1nc(N)nc2cc(C)nn12`
Result :: 71

Query :: Give passive cutaneous anaphylaxis in rats inhibition in vivo at 100 mg/kg for the following compound: `CCCNc1nc(N)nc2cc(C)nn12`
Result :: 69

Query :: Give passive cutaneous anaphylaxis in rats inhibition in vivo at 100 mg/kg for the following compound: `CNc1nc(NC)n2nc(C)cc2n1`
Result :: 83

Query :: Give passive cutaneous anaphylaxis in rats inhibition in vivo at 100 mg/kg for the following compound: Cn1c(=O)c2[nH]cnc2n(C)c1=O [Theophylline, reference compound]
Result :: 72

---

- Tested on: isolated trachea of guinea-pigs
- assay-procedure: Dilatation of the isolated trachea of guinea-pigs (Castillo & De Beer)
- Set-up: species or system guinea-pig
- protocol-conditions: 10 γ/ml; tensile load 500 mg
Tensile variation for assorted molecules
Provide only the numeric value, understood in mg.

Consider the worked cases shown below.
C=CCNc1nc(N)nc2cc(C)nn12
-180
CNc1nc(NC)n2nc(C)cc2n1
-207
Cc1cc2nc(N)nc(NCC3CCCO3)n2n1 (stereo not drawn)
-72
Cn1c(=O)c2[nH]cnc2n(C)c1=O [Theophylline, reference compound]
-90
Cc1cc2nc(N)nc(N)n2n1
-100

Query :: Look up and state reported Tensile variation for `CNc1nc(N)nc2cc(C)nn12`
Result :: -153

Query :: Look up and state reported Tensile variation for `CCc1nn2c(N)nc(N)nc2c1C`
Result :: -100

Query :: Look up and state reported Tensile variation for `Cc1cc2nc(N)nc(NC(C)C)n2n1`
Result :: -200

Query :: Look up and state reported Tensile variation for Nc1nc(N)n2nccc2n1 [Example 1, 2,4-Diamino-pyrazolo[1,5-a]s.triazine]
Result :: -60

---

- assay-procedure: in vivo
- protocol-conditions: mouse, iv
property-label: LD50 (mg/kg)
Provide only the numeric value, understood in mg/kg.

Query :: Look up and state reported LD50 for `CNc1nc(N)nc2cc(C)nn12`
Result :: 300

Query :: Look up and state reported LD50 for `Cc1cc2nc(N)nc(N)n2n1`
Result :: 380
